Provenance of the data: paper PMC12464775

- system: T1, human RNF43 (in solution) (human)
- T1 chain: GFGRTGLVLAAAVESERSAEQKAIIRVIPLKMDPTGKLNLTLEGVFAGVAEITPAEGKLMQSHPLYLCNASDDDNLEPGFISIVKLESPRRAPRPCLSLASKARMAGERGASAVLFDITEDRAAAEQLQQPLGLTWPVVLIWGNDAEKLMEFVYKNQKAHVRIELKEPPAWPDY
- experiment: SPR; bio-GUR-1.6.12.2 immobilized
Ends that are not written are not given here. * marks the point of attachment. Biotin = O=C1N[C@H]2[C@H](CS[C@H]2CCCCC(=O)*)N1
endpoint: Kd

Returns the measured Kd for the input binder. Input: Biotin-EQCTSTQDLCHDYSHVCCWPLDCRWAVKYQWFWDCIG (designed binder, cysteine pairing not given here) [N-terminal biotinylated GUR-1.6.12.2] 46.9 nM
